# assaySummary: xn = mol fraction of the nth substance listed, in the solute-free solvent
# measurementSetup: 293.15 K; x2 = 0.4
Answer each item with its documented solubility (g/100 g solution).
Simply state the number, no unit and no words.

The molecule identified as CC(C)C(=O)Nc1ccc([N+](=O)[O-])c(C(F)(F)F)c1 + C1CCOC1 + CC(C)O registered its solubility (g/100 g solution) at 50.1

Sure, the documented solubility (g/100 g solution) for CC(C)C(=O)Nc1ccc([N+](=O)[O-])c(C(F)(F)F)c1 + CCOC(C)=O + CC(C)O is 42.8

Looking up Cl.NC1CCSC1=O (centres undefined) + CO + CC#N , I see its solubility (g/100 g solution) listed as 2.12

For record CC(C)C(=O)Nc1ccc([N+](=O)[O-])c(C(F)(F)F)c1 + CC(C)=O + CC(C)O the listed solubility (g/100 g solution) is 48.8
